system.name: Aβ40 (Homo sapiens, UniProt P05067)
Construct: pre-treated Aβ40 (40 μM in 20 mM Tris, pH 7.4)
Sequence (P05067 672-711 limits assumed): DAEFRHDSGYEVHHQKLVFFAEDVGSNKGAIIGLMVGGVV
method.description: Thioflavin T (ThT) Aβ aggregation assay
test.parameters: 20 μM Aβ40, 37 degrees C
Description: Aβ40 (1.0 mg) was pre-treated in a 1.5 mL microfuge tube with HFIP (1 mL) and sonicated for 20 min to disassemble any pre-formed Aβ aggregates. The HFIP was removed with a stream of argon and the Aβ dissolved in Tris base (5.8 mL, 20 mM, pH ˜10). […] The kinetic ThT assay for Aβ aggregation is similar to that of Chalifour et al (Chalifour et al, 2003, J. Biol. Chem. 278:34874-81). […] Plates were covered with clear polystyrene lids and incubated at 37 degrees C. in a Tecan Genios microplate reader. […]
recorded.metric: IC50 (µM)

| compound | system.name | recorded.metric | relation | endpoint.result |
| --- | --- | --- | --- | --- |
| CC(C)N(C)c1cc(N2CCN(C(=O)c3ccccc3)CC2)ccc1[N+](=O)[O-] | Aβ40 (Homo sapiens, UniProt P05067) | IC50 | = | 16.9 |
| CC(C)Nc1cc(N2CCN(C(=O)c3ccccc3)CC2)cc(C(F)(F)F)c1 | Aβ40 (Homo sapiens, UniProt P05067) | IC50 | > | 50 |
| CCCN(CCC)C(=O)c1cccc(-c2ccc([N+](=O)[O-])c(NCc3ccccc3)c2)c1 | Aβ40 (Homo sapiens, UniProt P05067) | IC50 | > | 50 |
| O=C(C1CCCN(c2ccc([N+](=O)[O-])c(NCc3ccccc3)c2)C1)N1CCCC1 (stereo not shown) | Aβ40 (Homo sapiens, UniProt P05067) | IC50 | = | 27.8 |
| CC(C)Nc1cc(N2CCN(C(=O)c3ccccc3)CC2)ccc1[N+](=O)[O-] | Aβ40 (Homo sapiens, UniProt P05067) | IC50 | > | 10 |
| O=[N+]([O-])c1ccc(-c2ccc(-c3nn[nH]n3)cc2)cc1NCc1ccccc1 | Aβ40 (Homo sapiens, UniProt P05067) | IC50 | = | 1.1 |
| CN1CCN(c2cc(N3CCN(C(=O)c4ccccc4)CC3)ccc2[N+](=O)[O-])CC1 | Aβ40 (Homo sapiens, UniProt P05067) | IC50 | > | 10 |

###

Listed here: items and their measured IC50.
system.name: Aβ40 (Homo sapiens, UniProt P05067)
Construct: pre-treated Aβ40 (40 μM in 20 mM Tris, pH 7.4)
method.description: Thioflavin T (ThT) Aβ aggregation assay
test.parameters: 20 μM Aβ40, 37 degrees C

| compound.string | IC50 |
| --- | --- |
| N#Cc1cccc(-c2ccc([N+](=O)[O-])c(NCc3ccccc3)c2)c1 | > 50 µM |
| O=C(c1ccccc1)N1CCN(c2ccc(-n3cnnn3)c(N3CCCC3)c2)CC1 | > 50 µM |
| O=C(c1ccccc1)N1CCN(c2ccc(F)c(NCc3ccccc3)c2)CC1 | > 50 µM |

###

system.name: Aβ40 (Homo sapiens, UniProt P05067)
Construct: pre-treated Aβ40 (40 μM in 20 mM Tris, pH 7.4)
method.description: Thioflavin T (ThT) Aβ aggregation assay
test.parameters: 20 μM Aβ40, 37 degrees C
pIC50: −log10 of the molar value.
Listed here: items and their measured pIC50.

| compound | pIC50 |
| --- | --- |
| N#Cc1ccc(N2CCN(C(=O)c3ccccc3)CC2)cc1N1CCCC1 | < 4.30 |
| O=C(c1ccccc1)N1CCN(c2ccc([N+](=O)[O-])c(NC3CCC3)c2)CC1 | < 5.00 |
| O=C(c1ccccc1)N1CCN(c2ccc([N+](=O)[O-])c(N3CCCC3)c2)CC1 | ~5.00 |
| CC(C)Nc1cc(F)cc(N2CCN(C(=O)c3ccccc3)CC2)c1 | < 4.30 |
| O=[N+]([O-])c1ccc(-c2cccc(C(O)(O)C(F)(F)F)c2)cc1NCc1ccccc1 | 5.15 |
| CNC(=O)c1cccc(-c2ccc([N+](=O)[O-])c(NCc3ccccc3)c2)c1 | < 4.30 |
| CC(O)c1cccc(-c2ccc(C#N)c(N3CCCC3)c2)c1 (centres unmarked) | ~4.30 |
| CCN(CC)c1cc(N2CCN(C(=O)c3ccccc3)CC2)ccc1[N+](=O)[O-] | 4.91 |
| O=C(c1ccccc1)N1CCN(c2ccc(-n3cnnn3)c(NCc3ccccc3)c2)CC1 | < 4.30 |
| NS(=O)(=O)c1ccccc1-c1ccc([N+](=O)[O-])c(NCc2ccccc2)c1 | 4.61 |
| CC(C)N(C(=O)c1cccc(-c2ccc([N+](=O)[O-])c(NCc3ccccc3)c2)c1)C(C)C | 5.85 |
| CN(Cc1ccccc1)C(=O)c1cccc(-c2ccc([N+](=O)[O-])c(NCc3ccccc3)c2)c1 | 5.19 |
| O=C(c1ccccc1)N1CCN(c2ccc(Cl)c(Nc3ccccc3)c2)CC1 | 4.50 |
| CC(C)Nc1cc(N2CCN(C(=O)c3ccccc3)CC2)ccc1F | < 4.30 |
| O=C(c1ccccc1)N1CCN(c2ccc(F)c(N3CCCC3)c2)CC1 | < 4.30 |
| O=C(c1ccccc1)N1CCN(c2cc(F)c(C(F)(F)F)c(N3CCCC3)c2)CC1 | < 4.30 |
| O=C(c1cccc(-c2ccc([N+](=O)[O-])c(NCc3ccccc3)c2)c1)N1CCCC1 | 5.53 |
| O=C(c1ccccc1)N1CCN(c2ccc([N+](=O)[O-])c(NC3CC3)c2)CC1 | ~5.00 |
| O=C(c1cccc(-c2ccc([N+](=O)[O-])c(NCc3ccccc3)c2)c1)N1CCOCC1 | < 4.30 |
| NC(=O)c1cccc(-c2ccc([N+](=O)[O-])c(NCc3ccccc3)c2)c1 | 4.98 |
| O=C(c1ccccc1)N1CCN(c2cc(F)c(F)c(NCc3ccccc3)c2)CC1 | ~4.30 |
| CC(O)c1cccc(-c2ccc(F)c(N3CCCC3)c2)c1 (centres unmarked) | > 4.30 |
| CN(c1cc(N2CCN(C(=O)c3ccccc3)CC2)ccc1[N+](=O)[O-])C1CCC1 | 4.94 |
| CC(C)Nc1cc(N2CCN(C(=O)c3ccccc3)CC2)ccc1C(F)(F)F | < 4.30 |
| CC(C)Nc1cc(N2CCN(C(=O)c3ccccc3)CC2)cc(F)c1C(F)(F)F | < 4.30 |
| O=C(c1ccccc1)N1CCN(c2cc(F)c(F)c(N3CCCC3)c2)CC1 | < 4.30 |
| CC(=O)N1CCN(C(=O)c2cccc(-c3ccc([N+](=O)[O-])c(NCc4ccccc4)c3)c2)CC1 | < 4.30 |
| O=C(O)c1cccc(-c2ccc(Cl)c(Nc3ccccc3)c2)c1 | < 4.30 |
| CC(C)Nc1cc(N2CCN(C(=O)c3ccccc3)CC2)ccc1C#N | < 4.30 |

###

system.name: Aβ40 (Homo sapiens, UniProt P05067)
Construct: pre-treated Aβ40 (40 μM in 20 mM Tris, pH 7.4)
method.description: Thioflavin T (ThT) Aβ aggregation assay
Type: biochemical
test.parameters: 20 μM Aβ40, 37 degrees C

| molecule | IC50 |
| --- | --- |
| O=C(c1ccccc1)N1CCN(c2cc(N3CCCC3)cc(C(F)(F)F)c2)CC1 | > 50 µM |
| O=C(c1ccccc1)N1CCN(c2cc(F)cc(N3CCCC3)c2)CC1 | > 50 µM |
| CC(O)c1cccc(-c2ccc(OC(F)F)c(NCc3ccccc3)c2)c1 (stereo not drawn) | ~50 µM |
